# protocol_summary: Inhibition of Mycobacterium tuberculosis IMPDH2
measurement_type: pIC50
One number for each entry, as −log10 of the molar value.

[
  {
    "compound": "O=C(Cc1ccc(F)c2ccccc12)Nc1ccc2c(c1)COC2=O",
    "pIC50": 5.49
  },
  {
    "compound": "CC(C(=O)Nc1ccc2c(c1)COC2=O)c1ccc(C(=O)c2ccccc2)cc1 (stereo not drawn)",
    "pIC50": 5.21
  }
]

# ---- query compound ----
Fill in: pIC50 of COc1c(C)c2c(c(O)c1C/C=C(\C)CCC(=O)O)C(=O)OC2 is ___
4.57

----------
# protocol_summary: Inhibition of Helicobacter pylori IMPDH
measurement_type: pIC50
Give bare numbers, as −log10 of the molar value.

Fill in: pIC50 of O=C(Cn1cc(C(=O)Nc2cccnc2)c2ccccc21)Nc1ccc(Br)cc1 is ___
5.66

----------
# protocol_summary: Inhibition of Helicobacter pylori IMPDH using IMP as substrate preincubated for 10 mins followed by addition of substrate and measured after 45 mins in presence of NAD by fluorescence based assay
measurement_type: IC50 (µM)
Numbers only, in µM.

Fill in: IC50 of COc1cccc(Cn2cc(COc3ccc(-c4nnc(C)o4)cc3)nn2)c1 is ___
4.06
